system.tested: T1, human MHC class II DR protein (DRA*0101/DRB1*0401), purified from PRIESS cells (human, UniProt P01903 26-254; P01911 30-266, limits assumed)
T1 construct: mature; also called HLA-DR protein; MHCII
T1 MHC II alpha: not shown
T1 MHC II beta: not shown
protocol.description: ELISA, coated antigen, Fab 100 ng/well, read at 370 nm
measure.name: ELISA signal
I'd appreciate a reply containing only the number, no unit.

// known answers, use as guide
(Q) Can you share its ELISA signal? I mean this binder: MS-GPC-8-6-47 Fab (Fab, V domains shown, Fab: VH-CH1 with FLAG tag and STREP tag II, VL-CL; VH residue 1 is Q in Fab) VH: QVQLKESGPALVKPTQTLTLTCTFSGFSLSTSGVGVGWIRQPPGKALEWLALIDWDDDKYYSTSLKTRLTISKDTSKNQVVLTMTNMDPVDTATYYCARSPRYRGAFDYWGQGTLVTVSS VL: DIVLTQPPSVSGAPGQRVTISCSGSESNIGSNYVSWYQQLPGTAPKLLIYDNNQRPSGVPDRFSGSKSGTSASLAITGLQSEDEADYYCQSYDYDHYVFGGGTKLTVLG
(A) 1.4

(Q) Can you share its ELISA signal? I mean this binder: MS-GPC-8-27-7 Fab (Fab, V domains shown, Fab: VH-CH1 with FLAG tag and STREP tag II, VL-CL; VH residue 1 is Q in Fab) VH: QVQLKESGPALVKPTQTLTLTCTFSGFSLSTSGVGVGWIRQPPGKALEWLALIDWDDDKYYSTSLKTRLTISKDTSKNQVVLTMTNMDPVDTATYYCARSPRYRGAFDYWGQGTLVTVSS VL: DIVLTQPPSVSGAPGQRVTISCSGSESNIGNNYVGWYQQLPGTAPKLLIYDNNQRPSGVPDRFSGSKSGTSASLAITGLQSEDEADYYCQSYDMNVHVFGGGTKLTVLG
(A) 1.55

Next:
(Q) Can you share its ELISA signal? I mean this binder: MS-GPC-8 Fab (Fab, V domains shown, Fab from pMx9_Fab: VH-CH1 with FLAG tag and STREP tag II, VL-CL; VH residue 1 is Q in Fab; also called B8-Fab; B8) VH: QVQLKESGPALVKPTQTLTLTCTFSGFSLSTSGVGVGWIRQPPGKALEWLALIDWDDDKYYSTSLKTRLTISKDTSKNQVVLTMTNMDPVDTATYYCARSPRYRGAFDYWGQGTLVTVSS VL: DIVLTQPPSVSGAPGQRVTISCSGSSSNIGSNYVSWYQQLPGTAPKLLIYDNNQRPSGVPDRFSGSKSGTSASLAITGLQSEDEADYYCQSYDMPQAVFGGGTKLTVLG
(A) 1.06

Values were extracted from patent US7521047.
